system: firefly luciferase (Photinus pyralis, UniProt P08659)
Sequence (P08659 whole entry): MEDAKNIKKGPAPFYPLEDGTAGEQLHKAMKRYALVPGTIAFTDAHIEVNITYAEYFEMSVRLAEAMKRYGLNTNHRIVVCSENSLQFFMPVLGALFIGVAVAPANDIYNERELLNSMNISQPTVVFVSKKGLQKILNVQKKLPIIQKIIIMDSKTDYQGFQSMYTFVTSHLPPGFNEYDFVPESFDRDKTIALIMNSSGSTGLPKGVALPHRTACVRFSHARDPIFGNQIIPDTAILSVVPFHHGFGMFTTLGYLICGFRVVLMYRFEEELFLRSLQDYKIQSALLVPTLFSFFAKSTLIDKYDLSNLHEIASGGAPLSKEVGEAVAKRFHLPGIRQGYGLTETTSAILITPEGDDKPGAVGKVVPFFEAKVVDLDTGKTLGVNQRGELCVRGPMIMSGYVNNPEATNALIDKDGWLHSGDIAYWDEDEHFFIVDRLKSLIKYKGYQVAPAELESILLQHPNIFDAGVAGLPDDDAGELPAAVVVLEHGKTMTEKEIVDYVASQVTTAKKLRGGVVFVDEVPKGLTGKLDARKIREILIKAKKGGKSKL
protocol: Detergent screen with Tergitol NP-9, firefly luciferase (Example 3)
Assay type: biochemical
condition.set: 0.06% quencher in reagent solution; 0.5% Tergitol NP-9
Provide the recorded Retained Firefly Luminescence (%) for the entries that follow.
# output: bare number, implied unit %

Consider the molecule "CCCCCCCCCCCC[N+](C)(C)C1c2ccccc2-c2ccccc21.[Br-]" and give its recorded Retained Firefly Luminescence (%).
37

Kindly indicate its recorded Retained Firefly Luminescence (%). Item: "CCCCCCCCCCCC[N+](C)(C)Cc1ccc2c(c1)CCCC2.[Cl-]"
112.0

Given the molecule "C[N+](C)(Cc1ccccc1)C1CCCCC1.[Br-]" , write its reported Retained Firefly Luminescence (%).
90

All values here come from patent US20080248511A1.
